- study.target: Hepatitis C virus serine protease, NS3/NS4A (Hepatitis C virus, UniProt A3EZI9+D2K2A8, R155K)
- test.method.notes: Inhibition of Hepatitis C virus (isolate BK) genotype 1b NS3/4a protease R155K mutant expressed in Escherichia coli by time-resolved fluorescence analysis
pKi: −log10 of the molar value.
Decide by pKi: equal to or exceeding 9 means satisfied, less means not satisfied.

| molecule | class |
| --- | --- |
| C=C[C@@H]1C[C@]1(NC(=O)[C@@H]1C[C@@H]2CN1C(=O)[C@H](C1CCCCC1)NC(=O)OCC(C)(C)CCCc1cc3c(nccc3cc1OC)O2)C(=O)NS(=O)(=O)C1CC1 | not satisfied |
| C=C[C@@H]1C[C@]1(NC(=O)[C@@H]1C[C@@H]2CN1C(=O)[C@H](C(C)(C)C)NC(=O)O[C@@H]1CCC[C@H]1CCCCCc1nc3ccc(OC)cc3cc1O2)C(=O)NS(=O)(=O)C1CC1 | satisfied |
| C=C[C@@H]1C[C@]1(NC(=O)[C@@H]1C[C@@H]2CN1C(=O)[C@H](C1CCCCC1)NC(=O)OCC(C)(C)CCCCCc1nc3ccccc3cc1O2)C(=O)NS(=O)(=O)C1CC1 | satisfied |
| CC[C@@H]1C[C@]1(NC(=O)[C@@H]1C[C@@H]2CN1C(=O)[C@H](C(C)(C)C)NC(=O)OCC(C)(C)CCCCc1cccc3c1CN(C3)C(=O)O2)C(=O)NS(=O)(=O)C1CC1 | not satisfied |
| C=C[C@@H]1C[C@]1(NC(=O)[C@@H]1C[C@@H]2CN1C(=O)[C@H](C1CCCCC1)NC(=O)OCC(C)(C)CCCCCc1nc3ccc(OC)cc3cc1O2)C(=O)NS(=O)(=O)C1CC1 | satisfied |
| C=C[C@@H]1C[C@]1(NC(=O)[C@@H]1C[C@@H]2CN1C(=O)[C@H](C(C)(C)C)NC(=O)O[C@@H]1C[C@H]1CCCCCc1nc3ccc(OC)cc3cc1O2)C(=O)NS(=O)(=O)C1CC1 | satisfied |
| C=C[C@@H]1C[C@]1(NC(=O)[C@@H]1C[C@@H]2CN1C(=O)[C@H](C1CCCCC1)NC(=O)OCC(C)(C)CCC/C=C/c1nc3ccccc3cc1O2)C(=O)NS(=O)(=O)C1CC1 | satisfied |

====

- study.target: Genome polyprotein (Hepacivirus C, UniProt K7XJL6, A156V)
- test.method.notes: Inhibition of Hepatitis C virus (isolate BK) genotype 1b NS3/4a protease A156V mutant expressed in Escherichia coli by time-resolved fluorescence analysis
Examples of compounds with documented Ki follow.

| molecule | study.target | display.unit | Ki |
| --- | --- | --- | --- |
| C=C[C@@H]1C[C@]1(NC(=O)[C@@H]1C[C@@H]2CN1C(=O)[C@H](C1CCCCC1)NC(=O)OCC(C)(C)CCCCCc1nc3ccccc3cc1O2)C(=O)NS(=O)(=O)C1CC1 | Genome polyprotein (Hepacivirus C, UniProt K7XJL6, A156V) | nM | 80 |
| C=C[C@@H]1C[C@]1(NC(=O)[C@@H]1C[C@@H]2CN1C(=O)[C@H](C1CCCCC1)NC(=O)OCC(C)(C)CCCCCc1nc3ccc(OC)cc3cc1O2)C(=O)NS(=O)(=O)C1CC1 | Genome polyprotein (Hepacivirus C, UniProt K7XJL6, A156V) | nM | 64 |
| C=C[C@@H]1C[C@]1(NC(=O)[C@@H]1C[C@@H]2CN1C(=O)[C@H](C1CCCCC1)NC(=O)OCC(C)(C)CCCc1cc3c(nccc3cc1OC)O2)C(=O)NS(=O)(=O)C1CC1 | Genome polyprotein (Hepacivirus C, UniProt K7XJL6, A156V) | nM | 790 |
| C=C[C@@H]1C[C@]1(NC(=O)[C@@H]1C[C@@H]2CN1C(=O)[C@H](C(C)(C)C)NC(=O)O[C@@H]1C[C@H]1CCCCCc1nc3ccc(OC)cc3cc1O2)C(=O)NS(=O)(=O)C1CC1 | Genome polyprotein (Hepacivirus C, UniProt K7XJL6, A156V) | nM | 5.7 |
| CC[C@@H]1C[C@]1(NC(=O)[C@@H]1C[C@@H]2CN1C(=O)[C@H](C(C)(C)C)NC(=O)OCC(C)(C)CCCCc1cccc3c1CN(C3)C(=O)O2)C(=O)NS(=O)(=O)C1CC1 | Genome polyprotein (Hepacivirus C, UniProt K7XJL6, A156V) | nM | 88 |
| C=C[C@@H]1C[C@]1(NC(=O)[C@@H]1C[C@@H]2CN1C(=O)[C@H](C(C)(C)C)NC(=O)O[C@@H]1CCC[C@H]1CCCCCc1nc3ccc(OC)cc3cc1O2)C(=O)NS(=O)(=O)C1CC1 | Genome polyprotein (Hepacivirus C, UniProt K7XJL6, A156V) | nM | 11 |
| C=C[C@@H]1C[C@]1(NC(=O)[C@@H]1C[C@@H]2CN1C(=O)[C@H](C1CCCCC1)NC(=O)OCC(C)(C)CCC/C=C/c1nc3ccccc3cc1O2)C(=O)NS(=O)(=O)C1CC1 | Genome polyprotein (Hepacivirus C, UniProt K7XJL6, A156V) | nM | 79 |

====

- test.method.notes: Drug uptake in Sprague-Dawley rat liver at 5 mg/kg, po after 4 hrs by HPLC analysis
- Assay type: ADME, organism-based
- Design: dose 5 mg/kg, route oral
- assay.setup: read-out: Drug uptake
property.label: log10 of concentration at 4 h (log10 of the value in µM)

| compound | measured.result |
| --- | --- |
| C=C[C@@H]1C[C@]1(NC(=O)[C@@H]1C[C@@H]2CN1C(=O)[C@H](C1CCCCC1)NC(=O)OCC(C)(C)CCCc1ccc3nc(-c4ccccc4)cc(c3c1)O2)C(=O)NS(=O)(=O)C1CC1 | 0.89 |
| C=C[C@@H]1C[C@]1(NC(=O)[C@@H]1C[C@@H]2CN1C(=O)[C@H](C(C)(C)C)NC(=O)O[C@@H]1CCC[C@H]1CCCCCc1nc3ccc(OC)cc3cc1O2)C(=O)NS(=O)(=O)C1CC1 | 0.80 |
| C=C[C@@H]1C[C@]1(NC(=O)[C@@H]1C[C@@H]2CN1C(=O)[C@H](C1CCCCC1)NC(=O)OCC(C)(C)CCC/C=C/c1nc3ccccc3cc1O2)C(=O)NS(=O)(=O)C1CC1 | 0.18 |
| C=C[C@@H]1C[C@]1(NC(=O)[C@@H]1C[C@@H]2CN1C(=O)[C@H](C(C)(C)C)NC(=O)OCCCCC/C=C/c1nc3ccccc3cc1O2)C(=O)NS(=O)(=O)C1CC1 | -0.22 |
| C=C[C@@H]1C[C@]1(NC(=O)[C@@H]1C[C@@H]2CN1C(=O)[C@H](C(C)(C)C)NC(=O)O[C@@H]1C[C@H]1CCCCCc1nc3ccc(OC)cc3nc1O2)C(=O)NS(=O)(=O)C1CC1 [GRAZOPREVIR ANHYDROUS] | 1.36 |
| C=C[C@@H]1C[C@]1(NC(=O)[C@@H]1C[C@@H]2CN1C(=O)[C@H](C(C)(C)C)NC(=O)OCCCCC/C=C/c1cc3ccccc3nc1O2)C(=O)NS(=O)(=O)C1CC1 | 1.40 |
| C=C[C@@H]1C[C@]1(NC(=O)[C@@H]1C[C@@H]2CN1C(=O)[C@H](C(C)(C)C)NC(=O)O[C@@H]1C[C@H]1CCCCCc1nc3ccc(OC)cc3nc1O2)C(=O)[N-]S(=O)(=O)C1CC1.[K+] | 1.36 |

====

- study.target: Genome polyprotein (Hepacivirus C, UniProt K7XJL6, D168V)
- test.method.notes: Inhibition of Hepatitis C virus (isolate BK) genotype 1b NS3/4a protease D168V mutant expressed in Escherichia coli by time-resolved fluorescence analysis
pKi: −log10 of the molar value.
Examples of molecules with documented pKi follow.
property.label: pKi

| molecule | study.target | property.label | measured.result |
| --- | --- | --- | --- |
| C=C[C@@H]1C[C@]1(NC(=O)[C@@H]1C[C@@H]2CN1C(=O)[C@H](C(C)(C)C)NC(=O)O[C@@H]1C[C@H]1CCCCCc1nc3ccc(OC)cc3cc1O2)C(=O)NS(=O)(=O)C1CC1 | Genome polyprotein (Hepacivirus C, UniProt K7XJL6, D168V) | pKi | 10.30 |
| C=C[C@@H]1C[C@]1(NC(=O)[C@@H]1C[C@@H]2CN1C(=O)[C@H](C1CCCCC1)NC(=O)OCC(C)(C)CCCc1cc3c(nccc3cc1OC)O2)C(=O)NS(=O)(=O)C1CC1 | Genome polyprotein (Hepacivirus C, UniProt K7XJL6, D168V) | pKi | 7.57 |
| C=C[C@@H]1C[C@]1(NC(=O)[C@@H]1C[C@@H]2CN1C(=O)[C@H](C(C)(C)C)NC(=O)O[C@@H]1CCC[C@H]1CCCCCc1nc3ccc(OC)cc3cc1O2)C(=O)NS(=O)(=O)C1CC1 | Genome polyprotein (Hepacivirus C, UniProt K7XJL6, D168V) | pKi | 10.22 |
| CC[C@@H]1C[C@]1(NC(=O)[C@@H]1C[C@@H]2CN1C(=O)[C@H](C(C)(C)C)NC(=O)OCC(C)(C)CCCCc1cccc3c1CN(C3)C(=O)O2)C(=O)NS(=O)(=O)C1CC1 | Genome polyprotein (Hepacivirus C, UniProt K7XJL6, D168V) | pKi | 7.11 |
